Consider the following compounds; for each one, report its minimal effective dose.
# Tested on: CPA-induced urinary frequency in rat
# Test description: animal or person
# Type: in vivo
# Condition label: po, 48 h, read-out: effective dose (increase of reduced effective bladder capacity)
Answers are plain numbers, in mg/kg.

Use these answered entries as a reference point.
In [3]: df
Out[3]:
                                  structure  measured
0  NC(=O)c1cncc(OC(=O)N2CCC(CCc3cccc(C(=O)N4CCCC4)c3)CC2)c1         1
1  O=C(Oc1cccnc1)N1CCC(Oc2ccc(OCc3cccc(F)c3)cc2)CC1         3
2  O=C(O)c1cncc(OC(=O)N2CCC(Oc3ccc(OCCC4CCCCC4)cc3)CC2)c1         1
3  Cc1cccc(N2CCC(CCCC3CCN(C(=O)Oc4cncc(C(=O)O)c4)CC3)CC2)n1         1

I'm hoping you can list minimal effective dose for every compound here, please.
1. CN(C)C(=O)c1cccc(CCC2CCN(C(=O)Oc3cncc(C(N)=O)c3)CC2)c1
2. O=C(O)c1cncc(OC(=O)N2CCC(Oc3ccc(OCc4cccc(F)c4)cc3)CC2)c1
3. O=C(O)C(=O)O.O=C(O)C1CCN(c2cncc(OC(=O)N3CCC(Oc4ccc(OCc5cccc(F)c5)cc4)CC3)c2)CC1

Reply |
1
3
3

###

# Tested on: FAAH in human bladder epithelial cancer-derived cell line 5678 cells (Homo sapiens, UniProt O00519)
# Construct: host or cells: human bladder epithelial cancer-derived cell line ('5678' [sic], HTB-9)
# Sequence (O00519 whole entry): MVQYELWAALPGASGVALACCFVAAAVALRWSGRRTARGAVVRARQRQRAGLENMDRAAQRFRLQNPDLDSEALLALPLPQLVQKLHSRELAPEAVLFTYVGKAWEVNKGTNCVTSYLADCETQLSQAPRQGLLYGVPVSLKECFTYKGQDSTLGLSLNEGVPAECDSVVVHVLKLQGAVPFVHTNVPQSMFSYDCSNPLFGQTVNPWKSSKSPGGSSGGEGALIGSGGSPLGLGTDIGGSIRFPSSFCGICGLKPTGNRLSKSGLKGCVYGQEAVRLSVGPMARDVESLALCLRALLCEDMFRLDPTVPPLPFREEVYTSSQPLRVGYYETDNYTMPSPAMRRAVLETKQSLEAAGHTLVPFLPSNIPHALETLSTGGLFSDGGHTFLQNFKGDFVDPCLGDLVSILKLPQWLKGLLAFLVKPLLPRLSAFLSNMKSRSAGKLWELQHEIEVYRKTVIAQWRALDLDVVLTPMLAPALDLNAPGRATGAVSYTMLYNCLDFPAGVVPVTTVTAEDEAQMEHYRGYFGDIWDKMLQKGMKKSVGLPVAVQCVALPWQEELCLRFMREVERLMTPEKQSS
# Test description: Screening for FAAH activity-inhibiting substance with human bladder epithelial cancer-derived cell (IC50, Table 64)
# Format: cell-based
Where a name gives a salt, the structure may show the parent alone.
Consider the following compounds; for each one, report its IC50.
One number for each entry, in nM.

Example entries and their recorded answers appear below.
>>> df
                                   compound  measured
0  O=C(Oc1cccnc1)N1CCC(Oc2ccc(OCc3ccccc3F)cc2)CC1 [Example 208]      0.13
1  NC(=O)CCNC(=O)c1cncc(OC(=O)N2CCC(CCc3ccccc3)CC2)c1 [Example 333]      0.43
2  O=C(Oc1cccnc1)N1CCC(Oc2ccc(OCc3ccccc3)cc2Cl)CC1 [Example 51]      0.26
3  O=C(Oc1cccnc1)N1CCN(C(=O)c2ccc(OCc3cccc([N+](=O)[O-])c3)cc2)CC1 [Example 154]      0.17

Please state, for each entry, its recorded IC50.
1. O=C(Oc1cccnc1)N1CCN(C(=O)c2cccc(OCC3CCCCC3)c2)CC1 [Example 122]
2. O=C(Oc1cccnc1)N1CCN(C(=O)c2ccc(OCc3cccc(Br)c3)cc2)CC1 [Example 159]
3. NC(=O)c1cncc(OC(=O)N2CCC(CCc3cccc(-c4ccccc4)c3)CC2)c1 [Example 340]

Reply |
[0.15, 0.23, 0.052]

Okay, here is my list. What is IC50 for each of these?
1. COc1cccc(-c2ccc(CCC3CCN(C(=O)Oc4cncc(C(=O)O)c4)CC3)cc2)c1 [Example 303]
2. O=C(Oc1cccnc1)N1CCC(Oc2ccc(OCCC3CCCCC3)cc2)CC1 [Example 207]

Reply |
[0.12, 0.31]

Provide IC50 for all items below, preserving their order.
1. CN(C)c1cncc(OC(=O)N2CCC(Oc3ccc(OCc4cccc(F)c4)cc3)CC2)c1 [Example 30]
2. NC(=O)c1cncc(OC(=O)N2CCC(CCc3cccc(C(=O)N4CCCC4)c3)CC2)c1 [Example 359]
3. NC(=O)c1cncc(OC(=O)N2CCC(CCc3ccc(-c4ccc(F)cc4)cc3)CC2)c1 [Example 338]
4. NC(=O)c1cncc(OC(=O)N2CCC(CCc3cccc(C(=O)NC4CCCCC4)c3)CC2)c1 [Example 351]
5. O=C(Oc1cccnc1)N1CCC(Oc2ccc(OCc3cccc(Cl)c3)cc2)CC1 [Example 206, hydrochloride]
6. O=C(Oc1cccnc1)N1CCN(C(=O)c2ccc(OCc3cccc(C(F)(F)F)c3)cc2)CC1 [Example 149]
7. COC(=O)CCc1cncc(OC(=O)N2CCC(Oc3ccc(OCc4cccc(F)c4)cc3)CC2)c1 [Example 61]
8. Cc1cccc(N2CCC(CCCC3CCN(C(=O)Oc4cncc(C(=O)O)c4)CC3)CC2)n1 [Example 313]

Reply |
1. 0.19
2. 0.52
3. 0.034
4. 0.13
5. 0.17
6. 0.45
7. 0.35
8. 0.89
